Recorded melting point values for a group of compounds are listed next.

Asked: Please report the measured melting point for O=C(O)c1cccc(-n2cc3c(n2)-c2cccc(OC(F)F)c2CC3)c1 [Compound 183]
Given back: 235 to 237 °C

Asked: Please report the measured melting point for O=C(O)c1cccc(-n2cc3c(n2)-c2ccccc2OC3)c1 [Compound 144]
Given back: 227 to 228 °C

Asked: Please report the measured melting point for O=C(O)c1cccc(-n2cc(-c3ccccc3F)cn2)c1 [Compound 84]
Given back: 225 to 226 °C

---

Value Type: melting point

Check out these entries, answers already filled in.
>>> reported_measurement("O=C(O)c1ccc(-n2cnc(-c3cccc(C(=O)O)c3)n2)cc1 [Compound 31]")
"> 300 °C"
>>> reported_measurement("CC(C)c1ccc(-n2cnc(-c3cccc(C(=O)O)c3)c2)cc1")
"225 to 226 °C"
>>> reported_measurement("COc1ccc2c(c1)-c1nn(-c3ccc(C(=O)O)cc3)cc1CC2 [Compound 145]")
"290 to 292 °C"
>>> reported_measurement("COc1ccc(-c2ccn(-c3cccc(C(=O)O)c3)n2)cc1 [Compound 81]")
"210 to 211 °C"
>>> reported_measurement("O=C(O)c1cccc(-c2ncn(-c3ccc(Br)cc3)n2)c1 [Compound 22]")
"> 310 °C"
>>> reported_measurement("O=C(O)c1ccc(-n2cc(-c3ccc(Cl)cc3)cn2)cc1 [Compound 52]")
"300 to 302 °C"

Asked: Please report the measured melting point for O=C(O)c1cccc(-c2ncn(-c3cccc(Br)c3)n2)c1 [Compound 35]
Given back: 253 to 255 °C

Asked: Please report the measured melting point for O=C(O)c1cccc(-n2ncc3c2Cc2ccccc2-3)c1 [Compound 136]
Given back: 241 to 243 °C

Asked: Please report the measured melting point for Cc1cccc(-c2cnn(-c3cccc(C(=O)O)c3)c2)c1 [Compound 90, 3-(4-m-Tolyl-pyrazol-1-yl)-benzoic acid]
Given back: 181 to 182 °C

Asked: Please report the measured melting point for O=C(O)c1cccc(-n2cc(-c3ccccc3)cn2)c1 [Compound 98, 3-(4-Phenyl-pyrazol-1-yl)-benzoic acid]
Given back: 225 to 226 °C

Asked: Please report the measured melting point for COc1ccc(-c2ncn(-c3cccc(C(=O)O)c3)n2)cc1 [Compound 11]
Given back: 268 to 270 °C
